tested on: KM12 colon; assay: NCI-60 one-dose screen, 48 h; conditions: 10 µM unless noted
About 83,000 compounds went through this panel and 20% of them were active in at least one assay; those are over-represented in the sample as a whole. Calls of active or inactive are those of the source. How the source made its calls: active means growth percent below 10; inactive means the rest.
Return exactly one item of active, inactive

Solved entries (count: 6):
compound=O=C(OCc1nc2nc(Cl)nc(N3CCOCC3)c2[nH]1)n1ccnc1 cat=inactive
compound=COC(=O)Nc1ccc(NC(=O)OC)cc1 cat=inactive
compound=CN(C)CCCn1c2c(c3ccc(-c4ccn[nH]4)cc3c1=O)C(=O)c1ccccc1-2 cat=inactive
compound=CSc1nc(O)c(-c2ccccc2)c(=O)[nH]1 cat=inactive
compound=CCOC(=O)Oc1c(OC)cc(C(=O)O[C@@H]2C[C@@H]3CN4CCc5c([nH]c6cc(OC)ccc56)[C@H]4C[C@@H]3[C@H](C(=O)OC)[C@H]2OC)cc1OC cat=inactive
compound=CCNC(=S)NNC(=O)c1cc2ccc1CCc1ccc(cc1)CC2 cat=inactive

Prompt: Tell me the assay call for CCCCCCCCCCCCC1CCC/C=C\CCC(=O)O1 (stereo not given) please.
Completion: inactive

Prompt: For this compound, state the assay outcome: `O=C(N/N=C/c1ccc(F)cc1)c1ccccc1Nc1cccc(C(F)(F)F)c1`
Completion: inactive

Prompt: What did the test return for `c1ccc(-c2nn(-c3ccccc3)[n+](-c3ccccc3-c3ccccc3)n2)cc1` ?
Completion: active

Prompt: Short answer needed: outcome of this test for CC(=O)N1c2ccccc2NC2=C(C(=O)N(Cc3ccccc3)C2(C)C)C1c1ccco1 (stereo not given) ?
Completion: inactive

Prompt: Hello, I am checking results. What call was entered for `C(=N\Nc1ncc(-c2cc3cc4c(cc3o2)OCO4)s1)/c1c[nH]c2ccccc12` ?
Completion: active

Prompt: Recorded test outcome, item `C=C(C)[C@@H]1CC[C@]2(C(=O)N3CCN(C)CC3)CC[C@]3(C)[C@H](CC[C@@H]4[C@@]5(C)CCC(=O)C(C)(C)[C@@H]5CC[C@]43C)[C@@H]12`
Completion: inactive

Prompt: Per the assay record, what outcome was assigned to `COc1ccc(/C(=C\c2ccccc2)C(=O)O)cc1OC` ?
Completion: inactive

Prompt: Answer briefly: the call reported for `COc1ccc(C(=O)c2cc3c(N)c(C(=O)Nc4cccc(OC)c4)sc3nc2C)cc1` in this assay.
Completion: inactive

Prompt: Kindly provide the recorded test outcome for the following compound: `C#Cc1cccc(NC(=O)Nc2cccc(N=C=S)c2)c1`
Completion: inactive

Prompt: Dear all, I need the recorded test outcome for CC[N+](CC)(CCCC(C)[N+]1(Cc2ccccc2)C(C)=CC=C1C)Cc1ccccc1 (stereo not given) , thank you.
Completion: inactive

Prompt: What did this assay record as the result for `CNC(=O)c1c(NC(=O)c2ccc(C(C)C)cc2)sc2c(CN(C)C)c(O)ccc12` ?
Completion: inactive

Prompt: For O=C(c1ccccc1)N1N=C(c2ccc(-n3ccc(C(F)(F)F)n3)cc2)CC1c1ccc[nH]1 (stereo not given) , which call appears in the assay record?
Completion: inactive

Prompt: Identify the outcome logged in this assay for the compound shown: COc1ccc2c(c1)OC1=C(C(=O)OC1)C2c1cc(OC)c(OC)c(OC)c1 (stereo not given)
Completion: inactive

Prompt: // param item: `O=C(Nc1nc2ccc(S(=O)(=O)Nc3ccc(C4(C(F)(F)F)CC4)cc3)cc2[nH]1)c1cnccn1` ; yields the recorded call
Completion: active
